Numbers sourced from PubChem BioAssay (NCI).

Can you tell me TGI for the items I'm about to list?
Test system: SNB-19 CNS
Assay: NCI tumour cell line growth inhibition, 48 h

IN: Entry Cc1ccc(SC2=CC(=O)c3nc4ccccc4c4ccnc2c34)cc1 : reported TGI = ?
OUT: > 100 µM

IN: Which TGI is listed for Cc1cccc(C2=NC(C)(C)C(C)(C)N=C2c2cccc(C)n2)n1 ?
OUT: > 100 µM

IN: Entry under review: CSc1c(C#N)c(=O)[nH]c2n[nH]c(C)c12 . Reported TGI?
OUT: > 100 µM

====

System: SK-MEL-5 melanoma
Assay: NCI tumour cell line growth inhibition, 48 h
property-label: TGI (µM)
Output spec: scalar in µM, unitless text.

IN: What value of TGI has been reported for the following compound? COc1ccc2c(c1)N=C1CSC(c3ccccc3Cl)N1C2 (stereo unspecified)
OUT: 31.4

IN: Which TGI is reported for this compound? c1ccc2c(c1)nc(NC1CCCC1)c1[nH]c(C3CCCC3)nc12
OUT: 17.1

IN: Returns the measured TGI for the input compound. Input: C#CC(F)(F)[C@]1(O)CC[C@H]2[C@@H]3CCC4=CC(=O)CCC4=C3[C@@H](c3ccc(C(C)=O)cc3)C[C@@]21C
OUT: 21.6

IN: Consider the compound CO[C@@H]1CC(=O)C2(CC(=O)O[C@@H]2/C=C(\C)CCC=C(C)C)C[C@@H]1O (stereo partly specified) and give its measured TGI.
OUT: 2.13

IN: Fill blank: measured TGI of the compound C=CC(=O)N[C@H]1CCOC[C@H]1Nc1ncc2cc(-c3c(Cl)c(OC)cc(OC)c3Cl)ccc2n1 is ____.
OUT: 20.9

IN: GET /values?readout=TGI&item= O=C(O)c1cc2cc(OCc3ccccc3)c(OCc3ccccc3)cc2[nH]1
OUT: 47.3
